- TARGET_SYSTEM: Glucokinase regulatory protein (Mus musculus)
- Sequence (Q91X44 whole entry): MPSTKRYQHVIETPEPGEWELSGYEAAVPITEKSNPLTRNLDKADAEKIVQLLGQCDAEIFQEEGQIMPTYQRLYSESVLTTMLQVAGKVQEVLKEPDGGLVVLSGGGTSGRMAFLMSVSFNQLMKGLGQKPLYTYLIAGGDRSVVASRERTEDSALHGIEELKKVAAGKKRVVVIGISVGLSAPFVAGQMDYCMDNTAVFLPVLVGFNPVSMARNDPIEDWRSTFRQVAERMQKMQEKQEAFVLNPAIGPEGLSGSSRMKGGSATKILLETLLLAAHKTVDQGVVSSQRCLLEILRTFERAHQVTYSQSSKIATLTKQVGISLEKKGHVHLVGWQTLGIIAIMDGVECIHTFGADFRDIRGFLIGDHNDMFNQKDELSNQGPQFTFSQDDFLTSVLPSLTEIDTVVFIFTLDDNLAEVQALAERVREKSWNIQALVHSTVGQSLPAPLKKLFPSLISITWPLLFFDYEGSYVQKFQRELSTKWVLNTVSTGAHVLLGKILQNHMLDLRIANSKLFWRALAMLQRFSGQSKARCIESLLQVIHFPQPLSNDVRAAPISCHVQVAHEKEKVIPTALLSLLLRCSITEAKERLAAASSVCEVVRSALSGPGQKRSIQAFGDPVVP
- PROCEDURE_TEXT: Induction of GK translocation from nucleus to cytoplasm of mouse hepatocytes preincubated for 20 mins followed by glucose challenge measured after 40 mins by Hoechst 33342 staining-based assay
OBSERVATION_TYPE: pEC50
One number for each entry, as −log10 of the molar value.

Consider the following illustrative entries.
{"CPD_SMILES": "C[C@H]1COCCN1C[C@H]1CN(S(=O)(=O)c2cccs2)CCN1c1ccc([C@@](C)(O)C(F)(F)F)cc1", "pEC50": 5.75}
{"CPD_SMILES": "C[C@](O)(c1ccc(N2CCN(S(=O)(=O)c3cccs3)C[C@@H]2CN2[C@H]3COC[C@@H]2[C@H](O)C3)cc1)C(F)(F)F", "pEC50": 5.32}

Here is the next item to consider.
Data request: Record request: pEC50 value, item C[C@@](O)(c1ccc(N2CCN(S(=O)(=O)c3cccs3)C[C@@H]2CN2[C@H]3COC[C@@H]2[C@H](O)C3)cc1)C(F)(F)F
Data returned: 5.92

meta.source: ChEMBL document CHEMBL3112561
